Ref: ChEMBL document CHEMBL1136724

- target of assay: Nitric oxide synthase, inducible (Homo sapiens, UniProt P35228)
- Sequence (P35228 whole entry): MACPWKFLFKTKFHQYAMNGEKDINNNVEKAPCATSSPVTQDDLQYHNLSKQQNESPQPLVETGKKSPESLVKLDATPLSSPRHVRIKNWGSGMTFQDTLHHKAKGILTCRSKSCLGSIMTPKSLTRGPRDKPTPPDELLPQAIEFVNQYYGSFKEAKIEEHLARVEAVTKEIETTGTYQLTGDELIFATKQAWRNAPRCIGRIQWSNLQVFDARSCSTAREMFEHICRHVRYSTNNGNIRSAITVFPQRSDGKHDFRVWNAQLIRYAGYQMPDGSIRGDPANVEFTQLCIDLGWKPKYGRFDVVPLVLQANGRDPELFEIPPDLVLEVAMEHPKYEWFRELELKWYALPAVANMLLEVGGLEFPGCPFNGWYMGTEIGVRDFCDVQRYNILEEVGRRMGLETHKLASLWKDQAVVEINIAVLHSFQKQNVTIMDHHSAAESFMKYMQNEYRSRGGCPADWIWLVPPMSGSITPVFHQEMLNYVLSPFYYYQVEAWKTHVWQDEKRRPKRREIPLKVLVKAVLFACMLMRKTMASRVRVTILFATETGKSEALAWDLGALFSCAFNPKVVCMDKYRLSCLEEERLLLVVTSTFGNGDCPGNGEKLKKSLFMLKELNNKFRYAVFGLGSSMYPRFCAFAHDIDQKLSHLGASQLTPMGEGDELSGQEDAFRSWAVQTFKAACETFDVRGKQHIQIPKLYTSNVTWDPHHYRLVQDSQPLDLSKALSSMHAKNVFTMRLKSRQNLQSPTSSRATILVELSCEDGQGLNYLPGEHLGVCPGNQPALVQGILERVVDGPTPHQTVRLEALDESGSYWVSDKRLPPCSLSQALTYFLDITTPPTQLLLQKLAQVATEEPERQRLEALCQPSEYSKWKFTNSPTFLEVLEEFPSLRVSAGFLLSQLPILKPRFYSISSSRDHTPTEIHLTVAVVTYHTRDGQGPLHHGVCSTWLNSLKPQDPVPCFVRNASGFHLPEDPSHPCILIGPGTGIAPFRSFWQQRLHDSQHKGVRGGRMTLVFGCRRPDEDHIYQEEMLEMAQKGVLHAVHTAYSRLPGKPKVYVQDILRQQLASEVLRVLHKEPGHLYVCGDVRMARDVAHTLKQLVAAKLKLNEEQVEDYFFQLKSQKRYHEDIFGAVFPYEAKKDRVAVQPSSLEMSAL
Hi there, I'd appreciate the recorded IC50 for every entry that follows.
Numbers only, in nM.

Enquiry: Tell me IC50 reported for CCC1N=C(N)c2ccccc2N1 (stereo not drawn)
Return: 900

Next up:
Enquiry: Tell me IC50 reported for NC1=NC(C2CC2)Nc2ccccc21 (stereo not drawn)
Return: 1100
